- Measurement target: c-Met protein receptor on human umbilical vein endothelial cells (HUVEC) (human, UniProt P08581 25-1390)
- Sequence (P08581 25-1390): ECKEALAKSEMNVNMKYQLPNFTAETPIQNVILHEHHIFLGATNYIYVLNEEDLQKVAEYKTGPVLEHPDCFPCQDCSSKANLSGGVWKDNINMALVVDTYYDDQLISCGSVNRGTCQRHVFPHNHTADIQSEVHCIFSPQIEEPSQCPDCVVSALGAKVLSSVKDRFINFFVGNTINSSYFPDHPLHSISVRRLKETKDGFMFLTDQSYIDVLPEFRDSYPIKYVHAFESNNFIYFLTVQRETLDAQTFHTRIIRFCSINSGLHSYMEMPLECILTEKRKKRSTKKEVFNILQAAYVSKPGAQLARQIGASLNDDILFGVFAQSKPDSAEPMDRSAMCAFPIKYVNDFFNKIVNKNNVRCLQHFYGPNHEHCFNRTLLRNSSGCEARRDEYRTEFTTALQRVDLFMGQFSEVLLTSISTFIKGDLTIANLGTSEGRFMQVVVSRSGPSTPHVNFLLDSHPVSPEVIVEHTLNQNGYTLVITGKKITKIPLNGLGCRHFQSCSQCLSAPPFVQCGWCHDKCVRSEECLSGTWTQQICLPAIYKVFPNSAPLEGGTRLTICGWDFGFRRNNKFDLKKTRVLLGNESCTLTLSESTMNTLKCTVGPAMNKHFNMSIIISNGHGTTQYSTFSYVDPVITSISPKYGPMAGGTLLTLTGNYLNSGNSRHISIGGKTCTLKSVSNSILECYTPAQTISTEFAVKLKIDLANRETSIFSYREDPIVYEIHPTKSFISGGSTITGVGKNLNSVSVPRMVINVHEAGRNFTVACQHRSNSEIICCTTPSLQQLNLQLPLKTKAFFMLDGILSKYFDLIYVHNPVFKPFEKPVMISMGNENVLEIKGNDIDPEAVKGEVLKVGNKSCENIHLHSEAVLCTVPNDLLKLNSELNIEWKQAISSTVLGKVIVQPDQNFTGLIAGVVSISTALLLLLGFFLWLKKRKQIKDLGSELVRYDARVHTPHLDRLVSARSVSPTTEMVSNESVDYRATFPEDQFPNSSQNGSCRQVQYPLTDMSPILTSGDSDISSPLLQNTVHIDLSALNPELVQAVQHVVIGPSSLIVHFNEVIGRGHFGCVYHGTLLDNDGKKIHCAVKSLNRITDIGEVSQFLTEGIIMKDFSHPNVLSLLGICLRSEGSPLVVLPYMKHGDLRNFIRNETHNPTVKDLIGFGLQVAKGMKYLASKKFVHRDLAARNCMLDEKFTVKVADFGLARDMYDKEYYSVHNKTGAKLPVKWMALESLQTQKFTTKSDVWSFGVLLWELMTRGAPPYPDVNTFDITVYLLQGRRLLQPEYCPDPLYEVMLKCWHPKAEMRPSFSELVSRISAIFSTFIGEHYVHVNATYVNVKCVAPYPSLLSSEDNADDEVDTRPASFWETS
- Test method notes: cell-based or functional assay
// Relative Migration (%) (HUVEC migration assay) lookup, one value per entry
Write the number in % without appending the unit.

VH6/Vk2 (antibody, V domains shown, CDR-grafted variant of the IgG1-based anti-cMet antibody 1E4; also called anti-cMet candidate antibody VH6/Vk2) VH: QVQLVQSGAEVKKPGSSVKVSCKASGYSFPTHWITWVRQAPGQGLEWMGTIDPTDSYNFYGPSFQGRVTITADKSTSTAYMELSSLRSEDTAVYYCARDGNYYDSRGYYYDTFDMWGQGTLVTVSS VL: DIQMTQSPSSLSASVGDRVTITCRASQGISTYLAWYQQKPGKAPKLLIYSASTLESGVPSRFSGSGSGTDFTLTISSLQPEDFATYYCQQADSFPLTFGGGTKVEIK ... 154

For VH0/Vk0 (antibody, V domains shown, Derived from the IgG1-based 1E4 by a K to R change in the CH1 domain (G1m(3) allotype) and an S to T change in the light chain constant region (Km3 allotype); also called VMDO2 VH0/Vk0) VH: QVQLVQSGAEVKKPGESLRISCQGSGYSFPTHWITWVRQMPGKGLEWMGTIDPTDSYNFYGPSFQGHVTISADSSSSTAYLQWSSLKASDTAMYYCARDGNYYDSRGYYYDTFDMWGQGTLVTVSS VL: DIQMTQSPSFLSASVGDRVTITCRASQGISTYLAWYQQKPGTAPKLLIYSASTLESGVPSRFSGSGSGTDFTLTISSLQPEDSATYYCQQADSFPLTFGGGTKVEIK the binder record lists Relative Migration (%) (HUVEC migration assay) as 150

For VH4/Vk2 (antibody, V domains shown, CDR-grafted variant of the IgG1-based anti-cMet antibody 1E4; also called anti-cMet candidate antibody VH4/Vk2) VH: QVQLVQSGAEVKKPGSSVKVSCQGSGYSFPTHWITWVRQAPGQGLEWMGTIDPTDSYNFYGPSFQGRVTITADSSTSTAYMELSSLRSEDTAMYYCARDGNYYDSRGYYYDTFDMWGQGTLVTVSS VL: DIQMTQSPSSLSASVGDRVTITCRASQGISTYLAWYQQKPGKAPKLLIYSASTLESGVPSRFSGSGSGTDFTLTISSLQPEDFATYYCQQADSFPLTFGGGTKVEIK the binder record lists Relative Migration (%) (HUVEC migration assay) as 177

For VH4/Vk0 (antibody, V domains shown, CDR-grafted variant of the IgG1-based anti-cMet antibody 1E4; also called anti-cMet candidate antibody VH4/Vk0) VH: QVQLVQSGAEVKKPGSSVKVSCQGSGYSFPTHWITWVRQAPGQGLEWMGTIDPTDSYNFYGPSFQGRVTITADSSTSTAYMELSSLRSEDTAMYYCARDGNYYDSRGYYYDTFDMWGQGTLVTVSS VL: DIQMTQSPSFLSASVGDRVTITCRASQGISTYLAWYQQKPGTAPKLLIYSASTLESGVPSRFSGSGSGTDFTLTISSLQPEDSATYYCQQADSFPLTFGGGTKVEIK the binder record lists Relative Migration (%) (HUVEC migration assay) as 122

For VH5/Vk2 (antibody, V domains shown, CDR-grafted variant of the IgG1-based anti-cMet antibody 1E4; also called anti-cMet candidate antibody VH5/Vk2) VH: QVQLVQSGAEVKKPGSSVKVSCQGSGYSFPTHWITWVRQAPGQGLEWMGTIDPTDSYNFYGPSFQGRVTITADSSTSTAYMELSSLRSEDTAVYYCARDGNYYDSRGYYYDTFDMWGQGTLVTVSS VL: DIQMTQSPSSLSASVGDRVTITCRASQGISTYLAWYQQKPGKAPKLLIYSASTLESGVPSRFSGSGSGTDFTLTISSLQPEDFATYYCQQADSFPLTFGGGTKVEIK the binder record lists Relative Migration (%) (HUVEC migration assay) as 176
